Measure name: melting point

{"Molecule": "O=C(Nc1cccc(NC(=O)C(F)(F)C(F)(F)F)c1)Nc1ccc(Cl)c(Cl)c1", "melting point": "195 to 197 °C"}
{"Molecule": "O=S1(=O)c2cccc3cccc(c23)N1CCCN1CCN(c2ccccc2O)CC1", "melting point": "128 °C"}
{"Molecule": "O=C(O)COC(=O)c1c(Cl)cccc1Cl", "melting point": "180 to 182 °C"}
{"Molecule": "Cc1ccc(-c2cccc(/C=C/C(=O)Nc3ccc(-c4cccnc4)cc3)c2)cc1", "melting point": "213 to 214 °C"}
{"Molecule": "Cc1nc2cc(C(F)(F)F)c(Cl)c([N+](=O)[O-])c2n1N(C)C", "melting point": "160 to 162 °C"}

State the recorded melting point for this entry: CCc1nc2c(cnn2CC)c(NC2CCOCC2)c1CNC(=O)c1cccc(C(=O)NCc2ccc(Cl)c(-c3cccc(CN4CCNC(C)C4)c3)c2)c1 (stereo unspecified)
117 to 120 °C

State the recorded melting point for this entry: CN(C1CCC(=O)CC1)S(=O)(=O)c1ccc(Nc2nccc(Nc3ccc(F)cc3)n2)cc1
203 °C

State the recorded melting point for this entry: CC(C)(C)c1c(O)[nH]c(=O)[nH]c1=O
247 to 248 °C
